Activity overview
- SYSTEM_TESTED: Dual specificity tyrosine-phosphorylation-regulated kinase 1A (Homo sapiens) (UniProt Q13627)
- TEST_SUMMARY: Inhibition of N-terminal His-tagged human Dyrk1A (126 to 490 residues) expressed in Escherichia coli BL21 (DE3) cells at 1 uM using Woodtide as substrate assessed as remaining enzyme activity after 10 mins in presence of [gamma-32P]-ATP by microbeta scintillation counting method
Kindly answer with a numeric value in %, unit omitted.

Known results for compounds:
Problem: GET /values?readout=Activity&item= `Oc1ccc(-c2nnc3cncc(OCCc4cccc(O)c4)n23)cc1`
Result: 94

Problem: GET /values?readout=Activity&item= `Oc1ccc(-c2cnc3[nH]cc(-c4ccc(O)cc4)c3c2)cc1`
Result: 3.3

Problem: GET /values?readout=Activity&item= `Oc1ccc(-c2ccc(-c3cc(-c4ccc(O)cc4)n[nH]3)nc2)cc1`
Result: 110

Problem: GET /values?readout=Activity&item= `Oc1ccc(CCOc2cncc3nnc(-c4ccc(O)cc4)n23)cc1`
Result: 94

Problem: GET /values?readout=Activity&item= `O=C(Nc1cccc(O)c1)c1cncc2nnc(-c3ccc(O)cc3)n12`
Result: 104

***
Problem: GET /values?readout=Activity&item= `Oc1ccc(-c2nc[nH]c2-c2ccc(O)cc2)cc1`
Result: 100

Problem: GET /values?readout=Activity&item= `Oc1ccc(-c2ccnc(-c3cc(-c4ccc(O)cc4)ccn3)c2)cc1`
Result: 90
